cell viability values by entry
Test system: Caco-2
Assay: cell viability relative to DMSO; higher = less toxic
Details: 72 h; 100 nM
Numeric only. Scale: %

{"compound": "COc1ccc2cc1Oc1ccc(cc1)C[C@H]1c3cc(c(OC)cc3CCN1C)Oc1c(OC)c(OC)cc3c1[C@H](C2)N(C)CC3 [tetrandrine]", "unit.annotation": "%", "cell viability": 92.1}

API: the following record is the query input.
Annotate the compound CCCCCCNC(=O)n1cc(F)c(=O)[nH]c1=O [Carmofur] with its measured cell viability.
94.1

---

Tested on: U2OS
Test: cell viability relative to DMSO; higher = less toxic
Settings: 72 h; 1000 nM
cell viability values by entry
Numeric only. Scale: %

Worked set:
{"molecule": "O=C(CNC(=O)c1ccc(Cl)cc1)NO", "unit.annotation": "%", "cell viability": 104}
{"molecule": "NCC(CS(=O)(=O)O)c1ccc(Cl)cc1 (configuration not stated)", "unit.annotation": "%", "cell viability": 96.9}
{"molecule": "O=C1c2c(O)cc(O)cc2O[C@H](c2cc(O)c(O)c(O)c2)[C@H]1O [dihydromyricetin]", "unit.annotation": "%", "cell viability": 106}
{"molecule": "CC(=O)OC[C@H]1O[C@@](COC(C)=O)(O[C@H]2O[C@H](COC(C)=O)[C@@H](OC(C)=O)[C@H](OC(C)=O)[C@H]2OC(C)=O)[C@@H](OC(C)=O)[C@@H]1OC(C)=O [sucrose-octaacetate]", "unit.annotation": "%", "cell viability": 102}
{"molecule": "CC1OC2(CS1)CN1CCC2CC1 (configuration not stated)", "unit.annotation": "%", "cell viability": 106}

API: the following record is the query input.
Annotate the molecule OC[C@H]1O[C@@H](n2cnc3c(NC4CCCC4)ncnc32)[C@H](O)[C@@H]1O with its measured cell viability.
102
